target: CDK9 (Homo sapiens, UniProt P50750); construct: endogenous in cells; host or cells: MDA-MB-231; test: CDK protein degradation activity (Western blotting), CDK9; assay type: cell-based; conditions: MDA-MB-231 cells, 10 μM, 16 hours, Western blot
Sequence (P50750 whole entry): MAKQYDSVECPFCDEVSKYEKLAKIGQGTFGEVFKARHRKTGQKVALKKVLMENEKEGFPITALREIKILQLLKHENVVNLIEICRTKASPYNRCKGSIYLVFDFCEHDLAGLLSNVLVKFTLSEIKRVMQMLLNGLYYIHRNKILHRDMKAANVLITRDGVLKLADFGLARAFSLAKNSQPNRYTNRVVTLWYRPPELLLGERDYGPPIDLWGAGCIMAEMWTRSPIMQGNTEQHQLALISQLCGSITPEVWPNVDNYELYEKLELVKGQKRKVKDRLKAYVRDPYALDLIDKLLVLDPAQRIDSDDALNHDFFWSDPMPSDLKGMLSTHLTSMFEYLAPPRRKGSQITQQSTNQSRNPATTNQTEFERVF
property: Enzyme degradation CDK9 (% remaining) @ 10 μM

Cc1cccc(C(=O)N[C@H]2C[C@@H](n3cnc4c(Nc5ccc(N6CCN(C7CC8(CCN(C(=O)C9CCN(c%10cc%11c(cc%10F)C(=O)N([C@H]%10CCC(=O)NC%10=O)C%11=O)CC9)CC8)C7)CC6)cc5)ncnc43)C2)n1 [Compound 465]    0/0/0%
O=C1CC[C@H](N2C(=O)c3cc(F)c(N4CCC(CN5CCN(c6ccc(Nc7ncnc8c7ncn8[C@H]7C[C@@H](NC(=O)c8cccc(Cl)n8)C7)cc6)CC5)CC4)cc3C2=O)C(=O)N1 [Compound 416]    10/10/10%
O=C1CC[C@H](N2C(=O)c3ccc(N4CC(C(=O)N5CCC6(CC5)CC(N5CCN(c7ccc(Nc8ncnc9c8ncn9[C@H]8C[C@@H](NC(=O)Cc9ccccc9)C8)cc7)CC5)C6)C4)cc3C2=O)C(=O)N1 [Compound 352]    20/20/20%
O=C1CC[C@@H](c2ccc(OCC(=O)N3CCC(CN4CCN(c5ccc(Nc6ncnc7c6ncn7C6CC(NC(=O)c7cccc(C(F)(F)F)n7)C6)cc5)CC4)CC3)cc2)C(=O)N1 (some centres unmarked) [Compound 436]    10/10/10%
O=C1CC[C@@H](c2ccc(OCC(=O)N3CCC4(CC3)CC(N3CCC(c5ccc(Nc6ncnc7c6ncn7C6CC(NC(=O)Cc7ccccc7)C6)cc5)CC3)C4)cc2)C(=O)N1 (some centres unmarked) [Compound 284]    0/0/0%

----------
molecular target: CDK2 (Homo sapiens); construct: endogenous in cells; host or cells: MDA-MB-231; assay: CDK protein degradation activity (Western blotting), CDK2; assay type: cell-based; settings: MDA-MB-231 cells, 10 μM, 16 hours, Western blot
property: Enzyme degradation CDK2 (% remaining) @ 10 μM (%)

O=C1CC[C@H](N2C(=O)c3cccc(N4CCN(CCCN5CCN(c6ccc(Nc7ncnc8c7ncn8C7CC(NC(=O)Cc8ccccc8)C7)cc6)CC5)CC4)c3C2=O)C(=O)N1 (stereo partly drawn) [Compound 238]    50
Cc1cccc(C(=O)N[C@H]2C[C@H](n3cnc4c(NCC5CCN(CC6CCN(C(=O)CNc7ccc8c(c7)C(=O)N(C7CCC(=O)NC7=O)C8=O)CC6)CC5)ncnc43)C2)n1 (stereo partly drawn) [Compound 74]    50
O=C(COc1cccc2c1C(=O)N(C1CCC(=O)NC1=O)C2=O)NCC1CCC(CN2CCN(c3ccc(Nc4ncnc5c4ncn5C4CC(NC(=O)Cc5ccccc5)C4)cc3)CC2)CC1 (stereo not drawn) [Compound 219]    50

----------
target: CDK9 (Homo sapiens); construct: endogenous in cells; host or cells: MDA-MB-231; assay: CDK protein degradation activity (Western blotting), CDK9; assay type: cell-based; details: MDA-MB-231 cells, 10 μM, 16 hours, Western blot
Measured Enzyme degradation CDK9 (% remaining) @ 10 μM of individual entries
property: Enzyme degradation CDK9 (% remaining) @ 10 μM

O=C1CC[C@H](N2C(=O)c3cccc(NCC(=O)N4CCC5(CC4)CC(N4CCN(c6ccc(Nc7ncnc8c7ncn8[C@H]7C[C@@H](NC(=O)Cc8ccccc8)C7)cc6)CC4)C5)c3C2=O)C(=O)N1    0/0/0%
N#Cc1cccc(C(=O)NC2CC(n3cnc4c(Nc5ccc(N6CCN(CC7CCN(C(=O)C8CCN(c9cc%10c(cc9F)C(=O)N([C@H]9CCC(=O)NC9=O)C%10=O)CC8)CC7)CC6)cc5)ncnc43)C2)n1 (stereo partly drawn)    0/0/0%
Cc1cccc(C(=O)NC2CC(n3cnc4c(Nc5ccc(N6CCN(C7CC8(CCN(c9ccc%10c(c9)C(=O)N([C@H]9CCC(=O)NC9=O)C%10=O)CC8)C7)CC6)cc5)ncnc43)C2)n1 (stereo partly drawn)    0/0/0%
O=C1CCC(N2C(=O)c3ccc(N4CCC(C(=O)N5CCC(CN6CCC(CCNc7ncnc8c7ncn8[C@H]7C[C@@H](NC(=O)c8c(Cl)cccc8Cl)C7)CC6)CC5)CC4)cc3C2=O)C(=O)N1 (stereo partly drawn)    0/0/0%
Cc1cccc(C(=O)N[C@H]2C[C@@H](n3cnc4c(NCCC5CCN(CC6CCN(C(=O)C7CCN(c8cc9c(cc8F)C(=O)N(C8CCC(=O)NC8=O)C9=O)CC7)CC6)CC5)ncnc43)C2)n1 (stereo partly drawn)    0/0/0%
O=C1CCN(c2coc3cc(C(=O)N4CCC(CN5CCN(c6ccc(Nc7ncnc8c7ncn8[C@H]7C[C@@H](NC(=O)Cc8ccccc8)C7)cc6)CC5)CC4)ccc23)C(=O)N1    0%
O=C1CC[C@@H](c2ccc(OCC(=O)N3CCC(CN4CCN(c5ccc(Nc6ncnc7c6ncn7C6CC(NC(=O)Cc7ccccc7)C6)cc5)CC4)CC3)cc2)C(=O)N1 (stereo partly drawn)    0%
Cc1cccc(C(=O)NC2CC(n3cnc4c(NCCC5CCN(CC6CCN(C(=O)COc7cccc8c7C(=O)N([C@H]7CCC(=O)NC7=O)C8=O)CC6)CC5)ncnc43)C2)n1 (stereo partly drawn)    0%
O=C1CC[C@H](N2C(=O)c3cccc(NCC(=O)N4CCC(CN5CCN(c6ccc(Nc7ncnc8c7ncn8[C@H]7C[C@@H](NC(=O)c8cccc(C(F)(F)F)n8)C7)cc6)CC5)CC4)c3C2=O)C(=O)N1    0/0/0%
O=C1CCC(N2C(=O)c3ccc(N4CCC(CN5CCN(c6ccc(Nc7ncnc8c7ncn8[C@H]7C[C@@H](NC(=O)c8cccc(Cl)n8)C7)cc6)CC5)CC4)cc3C2=O)C(=O)N1 (stereo partly drawn)    0/0/0%
O=C1CCC(N2C(=O)c3cccc(OCC(=O)N4CCC5(CC4)CC(N4CCN(c6ccc(Nc7ncnc8c7ncn8[C@H]7C[C@@H](NC(=O)Cc8ccccc8)C7)cc6)CC4)C5)c3C2=O)C(=O)N1 (stereo partly drawn)    0/0/0%
O=C1CCC(N2C(=O)c3cc(F)c(N4CCC(N5CCN(c6ccc(Nc7ncnc8c7ncn8[C@H]7C[C@@H](NC(=O)Cc8ccccc8)C7)cc6)CC5)CC4)cc3C2=O)C(=O)N1 (stereo partly drawn)    0%
